Assay: P. falciparum Dd2 growth inhibitors, dose response, SYBR Green, dry powder samples (AID 1159566);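 also: potency for growth inhibition with lower SYBR green DNA signal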
Format: functional, cell-based
Activity calls are given as the source filed them. No rule for the calls is given here.
Listed below: AC50 values for each entry.

Cc1ccc(S(=O)(=O)N(C)C[C@H]2OCc3ccccc3-c3c(n(C)c4ccccc34)C(=O)N([C@@H](C)CO)C[C@@H]2C)cc1; 818 nM (active)
COc1ccccc1S(=O)(=O)N(C)C[C@@H]1OCc2ccccc2-c2c(n(C)c3ccccc23)C(=O)N([C@H](C)CO)C[C@@H]1C; 423 nM (active)
C[C@H]1CN([C@@H](C)CO)C(=O)c2c(c3ccccc3n2C)-c2ccccc2CO[C@@H]1CN(C)S(=O)(=O)c1ccc(F)cc1; 755 nM (active)

# next compound below
Input line: Could you share which AC50 value was measured for COc1ccc(S(=O)(=O)Nc2ccc3c(c2)CC(=O)N([C@H](C)CO)C[C@H](C)[C@H](CN(C)S(=O)(=O)c2ccc(C)cc2)O3)cc1 ?
Output line: 1880 nM (active)
